- assay target: ~100 representative kinases (Homo sapiens)
- Construct: Recombinant protein kinase domains with a concentration of 2 μM
- Sequence (Q16539 whole entry, the tested form may be a part): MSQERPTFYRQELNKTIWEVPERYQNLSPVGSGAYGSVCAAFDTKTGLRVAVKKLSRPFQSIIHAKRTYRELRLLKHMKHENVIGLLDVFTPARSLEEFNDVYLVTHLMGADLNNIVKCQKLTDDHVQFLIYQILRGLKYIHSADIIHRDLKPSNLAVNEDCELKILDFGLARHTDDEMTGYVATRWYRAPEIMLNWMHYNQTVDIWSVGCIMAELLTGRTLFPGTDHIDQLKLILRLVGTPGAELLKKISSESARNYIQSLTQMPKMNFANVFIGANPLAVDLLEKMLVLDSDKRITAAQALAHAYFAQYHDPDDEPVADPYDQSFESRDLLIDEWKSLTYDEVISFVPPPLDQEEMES
- assay text: DSF 100 kinase selectivity screen;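 further: compound tested at 20 µM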
- Format: binding
- experimental context: protein MAPK14; average of three replicates
property: dTm (K)

Sample answers from the record:
                                   compound  observed_result
0  Cn1cc(-c2c[nH]c3ncnc(N4CCOCC4)c23)cc1C#N [PFE-360]             0.53
1  O=C(Nc1cc(F)cc(Br)c1)C1(C(=O)Nc2cccc(-c3c[nH]c4ncnc(N5CCOCC5)c34)c2)CC1 [Compound 27]             1.86
2  Cc1ccc(-n2nc(C(C)(C)C)cc2NC(=O)Nc2cccc(-c3c[nH]c4ncnc(N5CCOCC5)c34)c2)cc1 [Compound 29]             5.90
3  O=C(Nc1cccc(-c2c[nH]c3ncnc(N4CCOCC4)c23)c1)C1(C(=O)Nc2ccc(F)cc2F)CC1 [Compound 23]            -0.38
4  CC(C)(C)c1cccc(NC(=O)C2(C(=O)Nc3cccc(-c4c[nH]c5ncnc(N6CCOCC6)c45)c3)CC2)c1 [Compound 22]             0.60

a. O=C(Nc1ccccc1)C1(C(=O)Nc2cccc(-c3c[nH]c4ncnc(N5CCOCC5)c34)c2)CC1 [Compound 12]
b. CCc1ccc(NC(=O)C2(C(=O)Nc3cccc(-c4c[nH]c5ncnc(N6CCOCC6)c45)c3)CC2)cc1 [Compound 15]
(Q) For this pair, a and b , which shows a numerically higher dTm? Identify your selection by its label.
(A) b
